System: Vero
test_name: Maximum nontoxic dose that allow exponential cell growth for three cell cycles
Format: functional, Chlorocebus sabaeus
measurement_label: MNTD (µg/mL)
Field: numeric (µg/mL). Do not append units.

Guide cases for MNTD, answers given:
Cn1cc(C(=O)c2ccc(Cl)cc2)cc1/C=C/C(=O)NO = 15
Cn1cc(C(=O)c2ccc(-n3ccnc3)cc2)cc1/C=C/C(=O)O = 125
Cc1ccc(C(=O)c2ccn(/C=C/C(=O)O)c2)cc1 = 30
Cn1cc(C(=O)c2ccc(F)cc2)cc1/C=C/C(=O)O = 15
CCOC(=O)/C=C/c1cc(C(=O)c2ccc(F)cc2)cn1C = 4
Cn1cc(C(=O)c2ccc(Cl)cc2)cc1/C=C/C(=O)O = 30

Incoming: For the compound CCOC(=O)/C=C/c1cc(C(=O)c2ccc(OC)cc2)cn1C , give its reported MNTD.
Outgoing: 8

Incoming: For the compound CCOC(=O)/C=C/c1cc(C(=O)c2ccc([N+](=O)[O-])cc2)cn1C , give its measured MNTD value.
Outgoing: 2

Incoming: Dear colleague, please send me the reported MNTD for Cn1cc(C(=O)c2ccc(F)cc2)cc1/C=C/C(=O)NO when you can.
Outgoing: 8

Incoming: Give the value of MNTD reported for the following: CCOC(=O)/C=C/c1cc(C(=O)c2ccc(N(C)C)cc2)cn1C
Outgoing: 2
